- System: SK-MEL-5
- method-summary: NCI tumour cell line growth inhibition, 48 h
The source made the active and inactive calls. Rule as the data show it: active = GI50 up to about 1.1 µM and inactive = higher.
measure: GI50

Field: example entries. Status: answers known.
COC(=O)/C=C\[C@@H]1[C@H](C)N1S(=O)(=O)c1ccc(C)cc1 (stereo partly specified) | > 100 µM (inactive)
CCN(CC)c1ccc2c(c1)Oc1ccc(N(C(C)=O)c3ccccc3)cc1C21OC(=O)c2ccccc21 (stereo unspecified) | 24.2 µM (inactive)
Cc1cc(NC(=O)NC(=O)c2ccccc2NC(=O)CN(C)C)ccc1Oc1ncc(Br)cn1 | 1.45 µM (inactive)
Cc1ccccc1/N=N/c1cc(C)c(/N=N/c2c(O)ccc3ccccc23)cc1C | > 100 µM (inactive)

Input line: # returns recorded GI50 (system: SK-MEL-5) for CCOC(=O)c1c(C)noc1/N=N/N(CCO)CCO
Output line: 15.7 µM (inactive)

Input line: Param item: CCOC(=O)CCCO
Output line: > 100 µM (inactive)

----------
- Tested on: UACC-62
- method-summary: NCI tumour cell line growth inhibition, 48 h
Calls of active or inactive are those of the source. Rule as the data show it: active = GI50 up to about 1.1 µM and inactive = higher.
Thanks in advance; please answer with one of these: 1 (yes) = active, 0 (no) = inactive

Please review the following examples before continuing.
C[C@@H]1O[C@@H](O[C@H]2CC[C@]3(C=O)[C@H]4CC[C@]5(C)[C@@H](c6ccc(=O)oc6)CC[C@]5(O)[C@@H]4CC[C@]3(O)C2)[C@H](O)[C@H](O)[C@H]1O[C@@H]1O[C@H](CO)[C@@H](O)[C@H](O)[C@H]1O | 1 (yes)
CC(C)c1ccccc1NC(=O)C(=O)Cc1nc2ccccc2s1 | 0 (no)
CC/C(Cl)=N\OC(=O)Nc1ccccc1OC(F)(F)F | 0 (no)
Cc1ccc2c3c4c(ccc13)C(C)(C)OC4=C(C(C)C)C2=O | 0 (no)

Input line: Which outcome did this test record for the compound COC(=O)c1sc(=NC(=S)N2CCCCC2)sc1C(=O)OC ?
Output line: 0 (no)

Input line: Param item: COc1ccc2cc(/C=N/NC(=O)Nc3ccccc3)ccc2c1
Output line: 0 (no)

Input line: Param item: CCOC(=O)/C(=N/Nc1ccc(Cl)cc1)N1C(=S)N(C)N=C(C)C=C1S
Output line: 0 (no)

----------
- Test system: SW-620
- method-summary: NCI tumour cell line growth inhibition, 48 h
The source made the active and inactive calls. Cut-off read from the data, not from the text of the source: active = GI50 up to about 1.1 µM and inactive = higher.
Thanks in advance; please answer with one of these: active, inactive

Input line: Which outcome did this test record for the compound Cc1ccc(-c2cc(-c3ccc(Cl)cc3)nc(/N=C3\C(=O)N(CN4CCCCC4)c4ccc(Cl)cc43)n2)cc1 ?
Output line: inactive

Input line: Param item: Cc1cc(C)n(-c2nc(-n3nc(C)cc3C)nc(-n3nc(C)cc3C)n2)n1
Output line: inactive

----------
- Test system: NCI-H226
- method-summary: NCI tumour cell line growth inhibition, 48 h
The source made the active and inactive calls. Rule as the data show it: active = GI50 up to about 1.1 µM and inactive = higher.
Thanks in advance; please answer with one of these: active, inactive

Input line: Which outcome did this test record for the compound OCc1ccc2c(c1)CC1(C2)Cc2cc3c(cc2C1O)CCC3 (stereo not given) ?
Output line: inactive

Input line: Param item: COc1ccc(CN2C(=O)C(Cc3cc(OC)c(OC)c(C)c3OC)N(C(=O)OC(C)C)C(=O)/C2=C/c2cc(OC)c(OC)c(C)c2OC)cc1 (stereo not given)
Output line: inactive

Input line: Param item: O=C(N/N=C/c1ccc(Cl)cc1)c1c(Cl)c(Cl)c(Cl)c(Cl)c1-c1nc2ccccc2[nH]1
Output line: active

Input line: Param item: O=C(/C=C/c1cccs1)c1ccc([N+](=O)[O-])cc1
Output line: inactive

----------
Entries annotated with measured GI50
- Test system: T47D
- method-summary: NCI tumour cell line growth inhibition, 48 h
Calls of active or inactive are those of the source. Cut-off read from the data, not from the text of the source: active = GI50 up to about 1.1 µM and inactive = higher.

Field: example entries. Status: answers known.
NC(CCc1ccccc1)(C(=O)O)c1ccccc1 (configuration not stated) | > 100 µM (inactive)
CCN(CC)c1ccc2c(c1)Oc1ccc(N(C(C)=O)c3ccccc3)cc1C21OC(=O)c2ccccc21 (configuration not stated) | 5.32 µM (inactive)
COc1ccc(/C=C/c2cc(OC)c(OC)c(OC)c2)cc1O[Si](C)(C)C(C)(C)C | 18.7 µM (inactive)

Input line: Quick one: GI50 for c1ccc(C[n+]2ccc3c(c2)CCCC3)cc1 ?
Output line: 45.3 µM (inactive)

Input line: Param item: CC1(C)CC2(C)CC1CC2(O)c1ccccc1 (configuration not stated)
Output line: > 100 µM (inactive)

Input line: Param item: CC(NC(=O)C(N)CC(=O)O)NC(=O)N(C)C(C)(C)C (configuration not stated)
Output line: > 100 µM (inactive)

----------
- Test system: NCI-H460
- method-summary: NCI tumour cell line growth inhibition, 48 h
The source made the active and inactive calls. Cut-off read from the data, not from the text of the source: active = GI50 up to about 1.1 µM and inactive = higher.
measure: GI50

CCCCc1ccc(N2C(=O)c3cc(C)cnc3S2(=O)=O)cc1 | > 100 µM (inactive)
Nc1ncnc2c1ncn2[C@@H]1O[C@H](COP(=O)(O)O)[C@@H](O)[C@@H]1O | > 50 µM (inactive)
O=C(O)C(O)C(O)C(O)C(O)CO.[Ba+2] (centres undefined) | > 100 µM (inactive)
Cc1ccc(-c2cc(-c3ccc(Cl)cc3)nc(/N=C3\C(=O)N(CN4CCCCC4)c4ccc(Cl)cc43)n2)cc1 | 22.5 µM (inactive)
Nc1nc(N)c2c(Cl)c(CNc3ccc(Cl)c(Cl)c3)ccc2n1 | < 0.01 µM (active)

Input line: Quick one: GI50 for N#Cc1cc2c(cc1C#N)/C(=N\c1cccc(N)n1)N/C2=N\c1cccc(N)n1 ?
Output line: 22.4 µM (inactive)

Input line: Param item: O=[PH]1c2ccccc2Nc2ccccc21
Output line: 53.5 µM (inactive)

Input line: Param item: CC/C(Cl)=N\OC(=O)Nc1ccccc1OC(F)(F)F
Output line: 20.7 µM (inactive)

Input line: Param item: CC1C[C@]2(C[C@@H](C)C(=O)O2)O[C@@H]2CC3(C)[C@@H]4CCC5C(C)(C)OC(=O)C[C@H]6OO[C@]4(CC[C@]3(C)C12)CC56O (some centres undefined)
Output line: > 100 µM (inactive)

Input line: Param item: CCCCN1C(=O)C[C@H]2[C@@H]3CCc4cc(OCCN5CCCC5)ccc4[C@H]3CC[C@]2(C)C1=O
Output line: 5.79 µM (inactive)

Input line: Param item: CCOC(=O)C1=C(OC(OCC)C([Se]c2ccccc2)C(C)C)CCC1 (centres undefined)
Output line: 16.9 µM (inactive)

----------
- System: A498
- method-summary: NCI tumour cell line growth inhibition, 48 h
Calls of active or inactive are those of the source. Rule as the data show it: active = GI50 up to about 1.1 µM and inactive = higher.
Thanks in advance; please answer with one of these: active, inactive

Please review the following examples before continuing.
CCOC(=O)C(=CNc1ccc(S(N)(=O)=O)cc1)C(=O)OCC | inactive
COc1ccc2[nH]c3ccc4cc[n+](CCN5CCC(C6CCN(CC[n+]7ccc8ccc9[nH]c%10ccc(OC)cc%10c9c8c7)CC6)CC5)cc4c3c2c1 | inactive
CC1CN=C(N(C(=O)Nc2ccccc2)c2ccc(Cl)c(Cl)c2)S1 (stereo not drawn) | inactive

Input line: Which outcome did this test record for the molecule NC12CC3CC(C1)CC(C(=O)O)(C3)C2 ?
Output line: inactive

Input line: Param item: CC(=O)/C(=N\O)C(=O)NCCc1ccccc1
Output line: inactive

Input line: Param item: COc1cc([C@@H]2c3cc4c(cc3[C@@H](OC(=O)c3ccc(N)cc3)C3COC(=O)[C@@H]32)OCO4)cc(OC)c1O (stereo partly drawn)
Output line: inactive

----------
- System: SF-539
- method-summary: NCI tumour cell line growth inhibition, 48 h
Active and inactive are the calls of the source. Rule as the data show it: active = GI50 up to about 1.1 µM and inactive = higher.
Entries annotated with measured GI50

Field: example entries. Status: answers known.
CC1(C)N=c2c(ncn2N)=C(C(N)=O)N1 | > 100 µM (inactive)
N=c1c2sc3nc4ccccc4n3c2ncn1Cc1ccccc1 | > 100 µM (inactive)
Oc1ccc(Cn2c(-c3ccc(O)c(O)c3)nc3ccccc32)cc1O | 7.45 µM (inactive)
O=C(NNC(=O)c1c(Cl)c(Cl)c(Cl)c(Cl)c1-c1nc2ccccc2[nH]1)c1ccc(Cl)cc1 | 47.4 µM (inactive)
Oc1ccc2ccccc2c1/C=N/Cc1c(O)ccc2ccccc12 | 31.6 µM (inactive)

Input line: Quick one: GI50 for O=C1NC2(O)c3ccccc3C(=O)C2(O)N1c1ccccc1 (stereo unspecified) ?
Output line: > 100 µM (inactive)

----------
- Tested on: HT-29
- method-summary: NCI tumour cell line growth inhibition, 48 h
Activity calls are given as the source filed them. Rule as the data show it: active = GI50 up to about 1.1 µM and inactive = higher.
measure: GI50

Field: example entries. Status: answers known.
CC1(C)Oc2ccc3c(=O)c(-c4ccccc4)c(-c4ccccc4)oc3c2C1C(=O)O (stereo not given) | > 100 µM (inactive)
Cn1c(=O)c2c(nc3n(Cc4ccccc4)c(=O)c(Br)cn23)n(C)c1=O | > 100 µM (inactive)
NCCN(CCN)/[N+]([O-])=N/O | > 100 µM (inactive)
C=CCN1C2Cc3cc(OC)c(OC)cc3C1Cc1cc(OC)c(OC)cc12 | 69 µM (inactive)
CC1(C)CC[C@]2(C)CC=C3[C@]4(C)CC[C@H]5C(C)(C)C(=O)CC[C@]5(C)[C@H]4CC[C@@]3(C)[C@H]2C1 | > 100 µM (inactive)

Input line: Quick one: GI50 for Cc1cc(Br)cc(C)c1NC(=O)C(=O)C(C(=O)c1ccc2ccccc2c1)C1OC(=O)c2ccccc21 (stereo not given) ?
Output line: 18.2 µM (inactive)

Input line: Param item: CCOC(=O)[C@H]1Nc2c(cccc2[N+](=O)[O-])C2c3ccccc3CC21 (stereo not given in full)
Output line: 18.3 µM (inactive)
